System: Acinetobacter baumannii
protocol: Antibacterial activity against cephalosporinase producing Acinetobacter baumannii ATCC 17978-PNT-320 after 18 hrs by broth microdilution method
Type: functional
experimentalContext: ATCC 17978-PNT-320, 18 h
assayEndpoint: MIC

C[C@]1(Cn2ccnn2)[C@H](C(=O)O)N2C(=O)C[C@H]2S1(=O)=O    < 10 µg/mL
COC(=O)CSC[C@H]1[C@H](NC(=O)Cc2ccccc2)C(=O)N1S(=O)(=O)O    > 50 µM
CC(C)(O/N=C(\C(=O)N[C@@H]1C(=O)N(S(=O)(=O)O)[C@H]1CSCCN)c1cnc(N)s1)C(=O)O    > 50 µM
CC(C)(O/N=C(\C(=O)N[C@@H]1C(=O)N(S(=O)(=O)O)[C@H]1CSCCNC(=O)CN(CCCCNC(=O)c1cccc(O)c1O)C(=O)c1cccc(O)c1O)c1cnc(N)s1)C(=O)O    0.4 µM

---

System: Pseudomonas aeruginosa
protocol: Antibacterial activity against Pseudomonas aeruginosa ARC 3506 after 18 hrs by broth microdilution method
Format: functional
experimentalContext: ARC 3506, 18 h
assayEndpoint: MIC

COC(=O)CSC[C@H]1[C@H](NC(=O)Cc2ccccc2)C(=O)N1S(=O)(=O)O    > 50 µM
CC(C)(O/N=C(\C(=O)N[C@@H]1C(=O)N(S(=O)(=O)O)[C@H]1CSCCN)c1cnc(N)s1)C(=O)O    > 50 µM
CC(C)(O/N=C(\C(=O)N[C@@H]1C(=O)N(S(=O)(=O)O)[C@H]1CSCCNC(=O)CN(CCCCNC(=O)c1cccc(O)c1O)C(=O)c1cccc(O)c1O)c1cnc(N)s1)C(=O)O    > 50 µM
C[C@H]1[C@H](NC(=O)/C(=N\OC(C)(C)C(=O)O)c2csc(N)n2)C(=O)N1S(=O)(=O)O    12.5 to 50 µM
CO/N=C(\C(=O)N[C@@H]1C(=O)N(S(=O)(=O)O)[C@H]1CSCCN)c1cnc(N)s1    > 50 µM
C[C@]1(Cn2ccnn2)[C@H](C(=O)O)N2C(=O)C[C@H]2S1(=O)=O    > 10 µg/mL
